So I've got a bunch of compounds here, and I need their pKi values.
Reminder that pKi is minus the log10 of a molar concentration.

IN: Under PTP1B (Homo sapiens, UniProt P18031): report pKi of CC(C)(C)c1ccc(S(=O)(=O)/C=C/C#N)cc1 .
OUT: 4.44

IN: Under PTP1B (Homo sapiens, UniProt P18031): report pKi of Cc1ccc(S(=O)(=O)/C=C/C#N)cc1 .
OUT: 6.00

---

List of pKi tested on DUSP10 (Homo sapiens).
Sequence (Q9Y6W6 whole entry, species assumed): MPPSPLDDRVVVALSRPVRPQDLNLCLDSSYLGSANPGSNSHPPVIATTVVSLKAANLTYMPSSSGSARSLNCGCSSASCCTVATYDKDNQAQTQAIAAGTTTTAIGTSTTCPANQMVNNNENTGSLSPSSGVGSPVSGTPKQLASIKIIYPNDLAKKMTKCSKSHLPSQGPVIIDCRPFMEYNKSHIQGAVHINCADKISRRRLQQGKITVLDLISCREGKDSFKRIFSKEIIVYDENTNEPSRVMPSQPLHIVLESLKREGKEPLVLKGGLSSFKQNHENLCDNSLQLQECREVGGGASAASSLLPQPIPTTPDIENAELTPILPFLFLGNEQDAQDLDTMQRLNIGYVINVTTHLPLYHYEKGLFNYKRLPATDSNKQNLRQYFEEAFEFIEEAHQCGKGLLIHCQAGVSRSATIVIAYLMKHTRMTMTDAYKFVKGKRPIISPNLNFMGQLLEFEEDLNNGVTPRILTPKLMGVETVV
Reminder that pKi is minus the log10 of a molar concentration.

IN: Give reported pKi value for Cc1ccc(S(=O)(=O)/C=C/C#N)cc1 [BAY 11-7082]
OUT: 3.82

IN: Give reported pKi value for CC(C)(C)c1ccc(S(=O)(=O)/C=C/C#N)cc1 [BAY 11-7085]
OUT: 3.74

---

List of pKi tested on PTP-alpha (Homo sapiens, UniProt P18433).
Sequence (P18433 20-802): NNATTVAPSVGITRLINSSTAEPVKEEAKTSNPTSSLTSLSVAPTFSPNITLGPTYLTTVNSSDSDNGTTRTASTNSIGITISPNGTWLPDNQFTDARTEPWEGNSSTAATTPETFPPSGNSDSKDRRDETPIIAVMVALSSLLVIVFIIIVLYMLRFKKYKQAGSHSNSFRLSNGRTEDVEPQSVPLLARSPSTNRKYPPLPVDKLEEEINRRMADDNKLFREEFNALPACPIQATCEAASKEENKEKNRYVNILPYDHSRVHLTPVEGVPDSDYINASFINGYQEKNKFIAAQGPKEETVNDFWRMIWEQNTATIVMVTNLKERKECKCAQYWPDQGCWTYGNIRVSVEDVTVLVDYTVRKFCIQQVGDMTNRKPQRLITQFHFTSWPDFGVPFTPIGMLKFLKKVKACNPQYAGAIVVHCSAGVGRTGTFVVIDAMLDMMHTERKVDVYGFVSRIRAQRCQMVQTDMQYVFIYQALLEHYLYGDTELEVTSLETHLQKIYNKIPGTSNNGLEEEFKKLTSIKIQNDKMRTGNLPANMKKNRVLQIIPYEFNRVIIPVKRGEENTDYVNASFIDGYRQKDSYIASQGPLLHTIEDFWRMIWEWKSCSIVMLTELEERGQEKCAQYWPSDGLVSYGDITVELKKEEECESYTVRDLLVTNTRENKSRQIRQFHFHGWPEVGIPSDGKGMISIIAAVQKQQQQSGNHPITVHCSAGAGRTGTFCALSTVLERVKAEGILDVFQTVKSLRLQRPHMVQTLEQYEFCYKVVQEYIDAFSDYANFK
Reminder that pKi is minus the log10 of a molar concentration.

IN: Give reported pKi value for CC(C)(C)c1ccc(S(=O)(=O)/C=C/C#N)cc1 [BAY 11-7085]
OUT: 4.35

IN: Give reported pKi value for Cc1ccc(S(=O)(=O)/C=C/C#N)cc1 [BAY 11-7082]
OUT: 5.64

---

# Target desc: PTP-PEST (Homo sapiens)
# Sequence (Q05209 whole entry, species assumed): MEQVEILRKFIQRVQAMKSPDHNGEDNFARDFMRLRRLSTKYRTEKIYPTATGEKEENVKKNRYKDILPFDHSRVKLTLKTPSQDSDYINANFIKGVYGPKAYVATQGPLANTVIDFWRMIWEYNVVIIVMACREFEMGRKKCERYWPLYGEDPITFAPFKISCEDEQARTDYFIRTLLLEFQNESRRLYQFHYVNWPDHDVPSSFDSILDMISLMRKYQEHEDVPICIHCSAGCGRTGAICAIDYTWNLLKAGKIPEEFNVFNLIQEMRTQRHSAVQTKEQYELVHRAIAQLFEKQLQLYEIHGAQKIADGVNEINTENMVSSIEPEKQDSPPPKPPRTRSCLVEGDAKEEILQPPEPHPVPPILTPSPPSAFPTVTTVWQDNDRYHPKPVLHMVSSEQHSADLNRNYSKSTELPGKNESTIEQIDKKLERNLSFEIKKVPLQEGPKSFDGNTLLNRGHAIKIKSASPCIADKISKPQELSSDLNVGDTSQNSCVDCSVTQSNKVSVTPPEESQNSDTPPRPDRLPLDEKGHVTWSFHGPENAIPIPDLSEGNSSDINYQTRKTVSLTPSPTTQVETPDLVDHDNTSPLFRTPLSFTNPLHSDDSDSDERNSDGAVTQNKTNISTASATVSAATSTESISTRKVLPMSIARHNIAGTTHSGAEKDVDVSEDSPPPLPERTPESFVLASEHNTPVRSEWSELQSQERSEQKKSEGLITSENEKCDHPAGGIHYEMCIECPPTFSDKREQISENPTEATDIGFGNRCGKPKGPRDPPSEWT
# Protocol notes: Inhibition of a panel of PTPs: PTP-PEST
# Assay type: biochemical
Outcome measure: Ki (µM)
Could you give me the number in µM? Just the number is fine.

IN: Give reported Ki value for CC(C)(C)c1ccc(S(=O)(=O)/C=C/C#N)cc1 [BAY 11-7085]
OUT: 40

IN: Give reported Ki value for Cc1ccc(S(=O)(=O)/C=C/C#N)cc1 [BAY 11-7082]
OUT: 0.9

---

Outcome measure: pKi
Reminder that pKi is minus the log10 of a molar concentration.

IN: Under PTEN (Homo sapiens, UniProt P60484): report pKi of CC(C)(C)c1ccc(S(=O)(=O)/C=C/C#N)cc1 [BAY 11-7085] .
OUT: 3.70

IN: Under PTEN (Homo sapiens, UniProt P60484): report pKi of Cc1ccc(S(=O)(=O)/C=C/C#N)cc1 [BAY 11-7082] .
OUT: 4.00
